assay: Pharmacokinetics in dogs treated with a promotor (pentagastrin) or an inhibitor (omeprazole) of gastric acid secretion; type: in vivo, dogs (male beagle); conditions: male, beagle, dog, plasma, po, 10 mg, oral 10 mg/capsule, fasted, Pentagastrin, increased gastric acid secretion, mean
Below: a set of entries, each annotated with reported Tmax.
Provide only the numeric value, understood in h.

# compound, Tmax (h)
records = [
    ("CC(=O)N[C@H]1CC[C@H](NC(=O)CN2CCN(c3nncc(-c4ccc(C)cc4)n3)CC2)CC1", 1.42),
]

API: the following record is the query input.
Item Br.CC(=O)N[C@H]1CC[C@H](NC(=O)CN2CCN(c3nncc(-c4ccc(C)cc4)n3)CC2)CC1 [Hydrobromide Form A crystal] : provide Tmax
1.67

* * *

assay: Pharmacokinetics in dogs treated with a promotor (pentagastrin) or an inhibitor (omeprazole) of gastric acid secretion; format: in vivo, dogs (male beagle); settings: male, beagle, dog, plasma, po, 10 mg, oral 10 mg/capsule, fasted, Omeprazole, reduced gastric acid secretion, mean
Below: a set of entries, each annotated with reported AUC(0-inf).
Provide only the numeric value, understood in ng·h/mL.

Item "CC(=O)N[C@H]1CC[C@H](NC(=O)CN2CCN(c3nncc(-c4ccc(C)cc4)n3)CC2)CC1" : provide AUC(0-inf)
1000

Item Br.CC(=O)N[C@H]1CC[C@H](NC(=O)CN2CCN(c3nncc(-c4ccc(C)cc4)n3)CC2)CC1 [Hydrobromide Form A crystal] : provide AUC(0-inf)
2030

* * *

experiment: Pharmacokinetics in dogs treated with a promotor (pentagastrin) or an inhibitor (omeprazole) of gastric acid secretion; format: in vivo, dogs (male beagle); details: male, beagle, dog, plasma, po, 10 mg, oral 10 mg/capsule, fasted, Pentagastrin, increased gastric acid secretion, mean
value_type: half-life (h)
Provide only the numeric value, understood in h.

# compound, unit_of_measure, half-life
rows = [
    ("Br.CC(=O)N[C@H]1CC[C@H](NC(=O)CN2CCN(c3nncc(-c4ccc(C)cc4)n3)CC2)CC1 [Hydrobromide Form A crystal]", "h", 4.24),
]

API: the following record is the query input.
Item "CC(=O)N[C@H]1CC[C@H](NC(=O)CN2CCN(c3nncc(-c4ccc(C)cc4)n3)CC2)CC1" : provide half-life
4.26

* * *

experiment: Chemical stability evaluation (storage 1 week, liquid chromatography peak area %); type: physicochemical; conditions: Table 5; change of related substances (peak area %) vs start
Below: a set of entries, each annotated with reported Chemical stability 60° C., 75% RH, 1 week (open).
Write your answer as a measured quantity: the number, then the unit.

Some compounds with recorded Chemical stability 60° C., 75% RH, 1 week (open):
# compound, result
data = [
    ("CC(=O)NC1CCC(NC(=O)CN2CCN(c3nncc(-c4ccc(C)cc4)n3)CC2)CC1.Cc1ccc(S(=O)(=O)O)cc1 (stereo not drawn) [Tosilate Form B crystal]", "−0.05%"),
    ("CC(=O)NC1CCC(NC(=O)CN2CCN(c3nncc(-c4ccc(C)cc4)n3)CC2)CC1.O=C(O)CO (stereo not drawn) [Glycolate Form A crystal]", "0.02%"),
]

API: the following record is the query input.
Item CC(=O)NC1CCC(NC(=O)CN2CCN(c3nncc(-c4ccc(C)cc4)n3)CC2)CC1.O=C(O)C=CC(=O)O (stereo not drawn) [Maleate Form B crystal] : provide Chemical stability 60° C., 75% RH, 1 week (open)
9.66%
